Each entry below carries its reported growth.
# System: PC-3 prostate
# experiment notes: NCI-60 one-dose screen, 48 h (100 = growth as untreated, 0 = no growth, -100 = all killed)
# experimental setup: 10 µM unless noted
# Experimental: Growth inhibition of the PC-3 human tumor cell line is measured as a screen for anti-cancer activity. Cells are grown in 96 well plates and exposed to the test compound for 48 hours. Compounds are tested at a single concentration, which is 10^-5 M for most compounds. The reported endpoint is percent growth (GI% or GIPRCNT), where numbers from 0 - 100% represent growth inhibition, and numbers from -100% - 0 represent cell death. For example, a value of 40 represents 60% growth inhibition. […]
Compounds without any hit were thinned out: in the full panel of roughly 83,000, 20% have a hit.
Give the quantity in %, number only.

Here's what some known entries look like.
compound	assay system	observed property	value reported
CN1C(=O)N(C)C2(c3ccccc3)n3c(s/c(=C\c4ccccc4)c3=O)=NNC12c1ccccc1 (stereo not drawn)	PC-3 prostate	growth	74.2
COc1ccc(CSc2nnc(SCC(=O)Nc3ccc(Cl)cc3)s2)cc1	PC-3 prostate	growth	58.6

Look up growth for this compound: COc1cc(/C=C/C(=O)c2ccc(Cl)cc2)cc(CN2CCCCC2)c1O
90.6

Same question for O=C(c1nc2ccccc2[nH]1)C1C(c2ccc([N+](=O)[O-])cc2)C2CC3CCCCC3N2[C@@]12C(=O)Nc1cc(Cl)ccc12 (stereo partly drawn) please.
22.3

Same question for O=S(=O)(c1ccc(NC(=S)NC23CC4CC(CC(C4)C2)C3)cc1)N1CCCCC1 please.
8.79

Same question for CCCCc1c(CCC)c(=N)c2ccccc2n1C please.
77.2

Same question for COc1ccc(OC)c(/C=C/C(=O)c2c(C)nc3ccccc3c2/C=C/c2ccccc2)c1 please.
59.4

Same question for CCCSC1=NC2C(N(CC)C(=O)N2CC)N1/N=C/C=C/c1ccccc1[N+](=O)[O-] (stereo not drawn) please.
24.9

Same question for CCCCC1CCc2cccc3c(SCC(=O)N(C)c4ccc(Cl)cc4)cc[n+]1c23 (stereo not drawn) please.
106

Same question for CCCCCCc1cc2cc(-c3csc(/C=C/c4ccccc4)n3)c(=O)oc2cc1O please.
25.1

Same question for COc1ccc(-c2nc(-c3ccccc3)c(-c3ccccc3)[nH]2)cc1OC1CCCCC1 please.
64.8

Same question for O=C1C(Cl)=C(NCc2ccco2)C(=O)c2ccccc21 please.
82.7

Same question for COc1ccc(C2C3=C(COC3=O)N(CCO)c3cc4c(cc32)OCCO4)cc1 (stereo not drawn) please.
72.9
